- System name: P2X3 (Homo sapiens)
- Construct: expressed in transfected cells; host or cells: 1321N1 cells, stably transfected
- Sequence (P56373 whole entry, species assumed): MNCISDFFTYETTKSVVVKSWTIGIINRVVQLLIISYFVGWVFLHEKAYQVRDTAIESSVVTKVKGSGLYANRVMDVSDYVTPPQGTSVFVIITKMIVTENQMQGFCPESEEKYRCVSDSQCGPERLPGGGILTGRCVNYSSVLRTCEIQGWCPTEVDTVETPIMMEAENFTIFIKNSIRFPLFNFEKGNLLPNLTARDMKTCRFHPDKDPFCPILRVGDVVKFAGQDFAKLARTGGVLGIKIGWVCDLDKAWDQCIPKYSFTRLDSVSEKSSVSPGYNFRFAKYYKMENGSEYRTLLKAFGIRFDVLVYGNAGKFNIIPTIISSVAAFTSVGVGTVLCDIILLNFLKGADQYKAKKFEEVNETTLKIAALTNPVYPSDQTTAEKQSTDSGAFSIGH
- Procedure details: Inhibition on the P2X3-mediated current in 1321N1 cell line stably transfected with P2X3 (whole-cell patch clamp)
- Assay type: cell-based
- Experimental parameters: 1321N1 P2X3 stable transfected cells, clamping potential -60 mV, 5 minutes pre-treatment, Hill equation fit; read-out: IC50, inhibition of P2X3-mediated current induced by 10 μM Na2ATP
- Method: Membrane current was recorded by employing HEKA EPC-10 patch clamp amplifier and PATCHMASTER acquisition system. 1321N1 P2X3 stable transfected cells were transferred to an about 1 ml bath embedded in an inverted microscope platform, and an extracellular fluid (2 mM CaCl2, 1 mM MgCl2, 5 mM KCl, 155 mM NaCl, 12 mM glucose and 10 mM HEPES (pH=7.4)) was perfused by using a gravitational perfusion system. The P2X3-mediated current of a single cell was recorded in a whole cell recording mode. […]
Measured metric: IC50 (nM)
Numeric only. Scale: nM

Identify IC50 associated with the compound C#Cc1cc(Oc2cnc(N)nc2N)c(C(C)C)cn1 [Compound 66] 26.2
